Biological target: human ether-à-go-go-related gene (hERG) potassium channel (human);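 also: peak tail current of the secondary pulse compared with the same well before compound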
Assay: primary screen, population patch clamp on CHO cells stably expressing hERG; higher = less effect of the substance
Out of some 310,000 compounds screened, about 14,000 (4.5%) showed an effect of 50% or more. Effects have a minus sign here. For the sample, strong results were picked, then their nearest neighbours and some compounds at random.
Assignment: determine reported hERG current change (%, negative = inhibition) at 10uM for the given compounds.
Use % as the unit, but write only the number.

Please fill in: hERG current change (%, negative = inhibition) at 10uM reported for N#CCC(=O)N1CCn2c1nc1ccccc12 = 17.2

// hERG current change (%, negative = inhibition) at 10uM lookup, compound = O=C(c1ccc2c(=O)n3c(nc2c1)CCCCC3)N1CCN(c2ccc(Cl)cc2)CC1 , result: -48

get_value(item= CC(=O)Nc1ccccc1-c1nc2ccc(C(=O)N3CCN(c4cc(C)ccc4C)CC3)cc2[nH]c1=O , readout=hERG current change (%, negative = inhibition) at 10uM) returns -23.5

Short answer for CCc1nc2ccc(C(=O)N3CCN(c4ccc([N+](=O)[O-])cc4)CC3)cc2nc1CC : hERG current change (%, negative = inhibition) at 10uM was -72.1

So, O=C(c1ccc2c(=O)n3c(nc2c1)CCCCC3)N1CCN(c2ccc(F)cc2)CC1 ? Its hERG current change (%, negative = inhibition) at 10uM was -42.1

The measured hERG current change (%, negative = inhibition) at 10uM associated with O=C(c1ccc(NC2=NC3CS(=O)(=O)CC3S2)cc1)N1CCN(c2ccc([N+](=O)[O-])cc2)CC1 (stereo not drawn) reads -4.75

###

Biological target: human ether-à-go-go-related gene (hERG) potassium channel (human, UniProt Q12809);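 also: peak tail current of the secondary pulse compared with the same well before compound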
Sequence (Q12809 whole entry, looked up): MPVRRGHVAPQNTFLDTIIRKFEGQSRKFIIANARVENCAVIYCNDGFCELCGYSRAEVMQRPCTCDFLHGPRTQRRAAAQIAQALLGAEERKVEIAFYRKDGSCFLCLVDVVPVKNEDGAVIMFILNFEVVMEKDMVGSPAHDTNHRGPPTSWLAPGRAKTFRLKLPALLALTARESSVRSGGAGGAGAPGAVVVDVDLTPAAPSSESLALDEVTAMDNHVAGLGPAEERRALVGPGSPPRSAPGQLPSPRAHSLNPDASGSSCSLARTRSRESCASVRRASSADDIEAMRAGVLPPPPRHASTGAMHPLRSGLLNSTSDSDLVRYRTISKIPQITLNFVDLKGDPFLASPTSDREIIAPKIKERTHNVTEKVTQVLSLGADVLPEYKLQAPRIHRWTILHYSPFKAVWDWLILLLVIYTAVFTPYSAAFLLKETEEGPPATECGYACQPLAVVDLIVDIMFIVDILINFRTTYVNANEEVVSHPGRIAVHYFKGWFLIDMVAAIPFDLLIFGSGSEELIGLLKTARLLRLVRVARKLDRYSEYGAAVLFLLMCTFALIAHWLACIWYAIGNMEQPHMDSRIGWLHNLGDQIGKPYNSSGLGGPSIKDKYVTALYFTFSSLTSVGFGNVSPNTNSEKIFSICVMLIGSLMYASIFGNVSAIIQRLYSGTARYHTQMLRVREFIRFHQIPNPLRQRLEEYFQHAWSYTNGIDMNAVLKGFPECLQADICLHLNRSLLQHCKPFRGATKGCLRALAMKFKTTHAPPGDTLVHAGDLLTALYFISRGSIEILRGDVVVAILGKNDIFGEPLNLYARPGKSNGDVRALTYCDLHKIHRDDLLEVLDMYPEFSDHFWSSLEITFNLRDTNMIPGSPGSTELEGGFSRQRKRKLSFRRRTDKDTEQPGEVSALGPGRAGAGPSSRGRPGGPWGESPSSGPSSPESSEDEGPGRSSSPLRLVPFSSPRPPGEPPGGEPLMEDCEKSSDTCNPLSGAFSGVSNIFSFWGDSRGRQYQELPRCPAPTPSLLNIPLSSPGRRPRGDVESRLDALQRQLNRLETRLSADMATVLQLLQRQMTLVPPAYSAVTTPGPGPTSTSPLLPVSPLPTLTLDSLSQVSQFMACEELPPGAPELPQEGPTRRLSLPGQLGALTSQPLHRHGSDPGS
Assay: primary screen, population patch clamp on CHO cells stably expressing hERG; higher = less effect of the substance
Among all 310,000 compounds or so, about 14,000 (4.5%) showed an effect of 50% or more. The effect is printed as a negative number. The sample holds strong results, similar compounds and a random draw of the others, so the mix is not that of the screen.
Binary classification by hERG current change (%, negative = inhibition) at 10uM, with -10% as an inclusive lower bound for Fulfilled; all other cases are Not fulfilled.

Test whether the compound COc1ccc(-n2c(C)n[nH]c2=O)cc1OC records hERG current change (%, negative = inhibition) at 10uM of -10% or higher.
Fulfilled

Identify whether the reported hERG current change (%, negative = inhibition) at 10uM of the following compound is -10% or greater: CC(C(=O)N1CCOCC1)N1C(=O)c2cccc3cccc(c23)C1=O (centres unmarked)
Fulfilled

For this compound, is measured hERG current change (%, negative = inhibition) at 10uM -10% or higher? O=C(c1ccc(Cl)s1)N1CCCC1
Fulfilled

Given Cc1cc(NC(=O)Cc2ccccc2)c2ccccc2n1 , state whether its hERG current change (%, negative = inhibition) at 10uM is at least -10%.
Fulfilled

Evaluate Br.O=C1SC(SC(=Nc2ccccc2)Nc2ccccc2)C(=O)N1c1ccccc1 (centres unmarked) : hERG current change (%, negative = inhibition) at 10uM at minimum -10%?
Fulfilled

Tell me whether hERG current change (%, negative = inhibition) at 10uM is at least -10% here: Cc1cc(NCc2ccccc2)nc2ccccc12
Not fulfilled

Check this compound for hERG current change (%, negative = inhibition) at 10uM at or above -10%: CCN1CCN(c2ccc(NC(=O)c3cccc(F)c3)cc2Cl)CC1
Not fulfilled

Exam item: decide whether the reported hERG current change (%, negative = inhibition) at 10uM for CN(C)C(=C(C#N)C#N)N1CCN(c2ccc(Cl)cc2)CC1 is at least -10%.
Not fulfilled

Reported hERG current change (%, negative = inhibition) at 10uM reaches at least -10% for CC(=O)Nc1ccc(S(=O)(=O)N2CCN(c3nnnn3-c3ccccc3)CC2)cc1 ?
Fulfilled

Reported hERG current change (%, negative = inhibition) at 10uM reaches at least -10% for O=C(Nc1ccc(N2CCOCC2)c(Cl)c1)c1ccc(F)cc1 ?
Fulfilled

Decide: hERG current change (%, negative = inhibition) at 10uM of CCOC(=O)N1CCN(c2ccc(Cl)c(Cl)c2)CC1 >= -10%?
Not fulfilled

hERG current change (%, negative = inhibition) at 10uM >= -10% for COc1ccc2nc(C)cc(NCc3ccc(F)cc3)c2c1 ?
Not fulfilled

Given the entry COC(=O)CSc1cc(C)nc2ccc(OC)cc12 , answer whether its hERG current change (%, negative = inhibition) at 10uM meets or surpasses -10%.
Fulfilled

Quick check: does CCN1C(=O)[C@H]2[C@@H](c3ccc(C)cc3)N3C(=O)N(c4ccc(C(F)(F)F)cc4)C(=O)[C@@]3(CC(C)C)[C@H]2C1=O have hERG current change (%, negative = inhibition) at 10uM greater than or equal to -10%?
Fulfilled
